Provide the reported remaining activity at 1 µM of each item.
target: panel of 442 kinases (Homo sapiens, UniProt P42684); construct: purchased Ambit Biosciences (scanMAXX KINOMEscan); experiment: biochemical; format: binding; conditions: ABL2; 1 µM; read-out: % of control at 1 µM
Sequence (P42684 whole entry): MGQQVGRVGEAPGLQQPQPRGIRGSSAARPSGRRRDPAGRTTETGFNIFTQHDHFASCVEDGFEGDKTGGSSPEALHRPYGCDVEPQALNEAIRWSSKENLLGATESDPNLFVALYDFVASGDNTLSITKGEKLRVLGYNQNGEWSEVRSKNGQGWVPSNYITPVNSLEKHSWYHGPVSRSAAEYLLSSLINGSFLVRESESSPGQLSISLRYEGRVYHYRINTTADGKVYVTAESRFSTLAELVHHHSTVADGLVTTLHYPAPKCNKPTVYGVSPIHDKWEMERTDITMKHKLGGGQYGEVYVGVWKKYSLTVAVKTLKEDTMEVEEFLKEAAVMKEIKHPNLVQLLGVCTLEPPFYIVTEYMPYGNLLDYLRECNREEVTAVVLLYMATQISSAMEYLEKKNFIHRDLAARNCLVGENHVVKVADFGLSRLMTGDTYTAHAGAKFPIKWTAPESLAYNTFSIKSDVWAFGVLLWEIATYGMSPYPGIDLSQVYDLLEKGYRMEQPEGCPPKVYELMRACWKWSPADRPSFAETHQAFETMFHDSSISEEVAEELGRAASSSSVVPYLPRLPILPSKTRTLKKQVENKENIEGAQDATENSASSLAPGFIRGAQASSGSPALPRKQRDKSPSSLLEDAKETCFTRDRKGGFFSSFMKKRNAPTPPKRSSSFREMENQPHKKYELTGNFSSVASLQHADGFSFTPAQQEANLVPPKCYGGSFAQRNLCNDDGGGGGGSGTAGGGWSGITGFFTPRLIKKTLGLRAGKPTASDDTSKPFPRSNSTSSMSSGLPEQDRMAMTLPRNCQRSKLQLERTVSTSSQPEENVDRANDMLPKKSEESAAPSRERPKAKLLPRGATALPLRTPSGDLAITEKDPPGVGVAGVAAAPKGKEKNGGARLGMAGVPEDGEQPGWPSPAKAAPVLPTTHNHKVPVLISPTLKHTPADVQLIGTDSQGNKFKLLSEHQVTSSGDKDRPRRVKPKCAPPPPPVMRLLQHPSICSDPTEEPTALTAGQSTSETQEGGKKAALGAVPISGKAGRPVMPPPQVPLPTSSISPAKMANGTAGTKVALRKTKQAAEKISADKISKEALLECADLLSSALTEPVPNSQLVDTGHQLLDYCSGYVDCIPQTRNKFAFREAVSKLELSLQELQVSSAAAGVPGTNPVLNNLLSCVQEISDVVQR
One number for each entry, in %.

INSERT INTO assay_data (molecule, measured_value) VALUES
  ('COc1ncc(-c2ccc3nccc(-c4ccnnc4)c3c2)cc1NS(=O)(=O)c1ccc(F)cc1F [Omipalisib]', 100),
  ('Nc1cc(C(F)(F)F)c(-c2cc(N3CCOCC3)nc(N3CCOCC3)n2)cn1 [Buparlisib]', 100),
  ('Cn1c(=O)n(-c2ccc(C(C)(C)C#N)cc2)c2c3cc(-c4cnc5ccccc5c4)ccc3ncc21 [Dactolisib]', 100);

Query: Could you tell me which remaining activity at 1 µM is on file for FC(F)c1nc2ccccc2n1-c1nc(N2CCOCC2)nc(N2CCOCC2)n1 [ZSTK474] ?
Result: 100

---

target: panel of 442 kinases (Homo sapiens, UniProt P10721, L576P); construct: purchased Ambit Biosciences (scanMAXX KINOMEscan); assay: biochemical; assay type: binding; conditions: kinase KIT(L576P); 1 µM; read-out: % of control at 1 µM
Sequence (P10721 26-976 L576P): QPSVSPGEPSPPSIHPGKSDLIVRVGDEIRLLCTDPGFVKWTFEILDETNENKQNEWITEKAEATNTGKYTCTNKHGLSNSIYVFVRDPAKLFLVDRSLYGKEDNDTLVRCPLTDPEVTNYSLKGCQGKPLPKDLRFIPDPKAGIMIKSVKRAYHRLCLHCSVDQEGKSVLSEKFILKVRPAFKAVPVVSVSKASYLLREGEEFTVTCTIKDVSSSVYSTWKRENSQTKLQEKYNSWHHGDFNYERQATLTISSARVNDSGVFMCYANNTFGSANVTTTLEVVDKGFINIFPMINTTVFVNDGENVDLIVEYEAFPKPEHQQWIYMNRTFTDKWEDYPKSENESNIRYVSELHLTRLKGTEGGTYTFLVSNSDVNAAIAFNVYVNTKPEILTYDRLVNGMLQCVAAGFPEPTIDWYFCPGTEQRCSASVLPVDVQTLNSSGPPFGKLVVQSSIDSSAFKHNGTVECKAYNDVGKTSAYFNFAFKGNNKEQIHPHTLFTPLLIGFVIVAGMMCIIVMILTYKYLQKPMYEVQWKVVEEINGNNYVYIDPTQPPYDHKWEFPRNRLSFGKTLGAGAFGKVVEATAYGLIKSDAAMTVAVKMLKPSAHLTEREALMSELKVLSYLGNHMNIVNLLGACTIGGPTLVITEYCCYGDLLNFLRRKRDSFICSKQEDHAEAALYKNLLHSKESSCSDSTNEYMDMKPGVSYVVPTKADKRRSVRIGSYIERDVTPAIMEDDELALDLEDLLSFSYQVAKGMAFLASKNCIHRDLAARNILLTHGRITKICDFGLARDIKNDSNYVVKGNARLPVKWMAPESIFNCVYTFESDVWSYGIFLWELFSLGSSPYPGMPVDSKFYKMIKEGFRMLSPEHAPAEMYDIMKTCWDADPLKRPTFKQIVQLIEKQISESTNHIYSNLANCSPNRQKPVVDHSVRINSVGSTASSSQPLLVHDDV
measured parameter: remaining activity at 1 µM (%)
One number for each entry, in %.

INSERT INTO measurements (structure_smiles, measured_parameter, scale_unit, measured_value) VALUES
  ('Nc1cc(C(F)(F)F)c(-c2cc(N3CCOCC3)nc(N3CCOCC3)n2)cn1', 'remaining activity at 1 µM', '%', 80),
  ('FC(F)c1nc2ccccc2n1-c1nc(N2CCOCC2)nc(N2CCOCC2)n1', 'remaining activity at 1 µM', '%', 100),
  ('Cn1c(=O)n(-c2ccc(C(C)(C)C#N)cc2)c2c3cc(-c4cnc5ccccc5c4)ccc3ncc21', 'remaining activity at 1 µM', '%', 59);

Consider the additional compound presented here.
Query: Could you tell me which remaining activity at 1 µM is on file for COc1ncc(-c2ccc3nccc(-c4ccnnc4)c3c2)cc1NS(=O)(=O)c1ccc(F)cc1F ?
Result: 90

---

target: panel of 442 kinases (Homo sapiens, UniProt P29597); construct: purchased Ambit Biosciences (scanMAXX KINOMEscan); assay: biochemical; type: binding; details: kinase TYK2(JH2domain-pseudokinase); 1 µM; read-out: TYK2(JH2domain-pseudokinase) (% of control at 1 µM)
Sequence (P29597 whole entry): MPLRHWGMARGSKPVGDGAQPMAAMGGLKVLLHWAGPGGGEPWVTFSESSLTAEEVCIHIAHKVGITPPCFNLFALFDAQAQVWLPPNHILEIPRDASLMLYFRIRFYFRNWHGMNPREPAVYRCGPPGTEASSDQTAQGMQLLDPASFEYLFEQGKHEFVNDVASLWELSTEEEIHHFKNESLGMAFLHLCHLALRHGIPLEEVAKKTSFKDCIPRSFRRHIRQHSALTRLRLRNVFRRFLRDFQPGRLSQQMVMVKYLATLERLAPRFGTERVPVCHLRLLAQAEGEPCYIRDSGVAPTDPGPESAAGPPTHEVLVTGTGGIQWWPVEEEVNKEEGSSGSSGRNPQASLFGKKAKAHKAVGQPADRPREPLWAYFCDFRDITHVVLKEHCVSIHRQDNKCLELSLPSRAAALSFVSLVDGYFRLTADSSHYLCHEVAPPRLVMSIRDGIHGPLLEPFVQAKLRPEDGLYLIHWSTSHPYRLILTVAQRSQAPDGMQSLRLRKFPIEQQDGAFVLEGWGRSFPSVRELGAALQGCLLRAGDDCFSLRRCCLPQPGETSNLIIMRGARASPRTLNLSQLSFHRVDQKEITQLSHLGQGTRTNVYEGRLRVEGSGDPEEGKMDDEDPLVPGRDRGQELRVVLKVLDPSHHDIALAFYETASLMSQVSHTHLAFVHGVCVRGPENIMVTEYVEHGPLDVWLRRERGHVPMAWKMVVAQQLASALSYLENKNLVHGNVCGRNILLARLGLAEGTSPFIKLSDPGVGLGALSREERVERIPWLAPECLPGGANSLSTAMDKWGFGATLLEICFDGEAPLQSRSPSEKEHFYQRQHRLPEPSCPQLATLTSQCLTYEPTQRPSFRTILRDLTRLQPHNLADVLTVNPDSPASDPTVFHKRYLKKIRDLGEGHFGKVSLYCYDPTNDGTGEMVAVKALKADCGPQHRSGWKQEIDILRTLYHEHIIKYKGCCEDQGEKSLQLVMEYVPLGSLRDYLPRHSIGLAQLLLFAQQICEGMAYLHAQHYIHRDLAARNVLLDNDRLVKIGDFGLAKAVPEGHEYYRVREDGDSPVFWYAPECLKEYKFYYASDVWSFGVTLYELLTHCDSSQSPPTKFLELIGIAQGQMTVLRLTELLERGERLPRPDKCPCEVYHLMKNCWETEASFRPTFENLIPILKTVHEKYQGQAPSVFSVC
Provide the reported remaining activity at 1 µM of each item.

Please review the following examples before continuing.
INSERT INTO results (structure_smiles, measured_parameter, measured_value) VALUES
  ('COc1ncc(-c2ccc3nccc(-c4ccnnc4)c3c2)cc1NS(=O)(=O)c1ccc(F)cc1F', 'remaining activity at 1 µM', '78%'),
  ('FC(F)c1nc2ccccc2n1-c1nc(N2CCOCC2)nc(N2CCOCC2)n1', 'remaining activity at 1 µM', '97%'),
  ('Cn1c(=O)n(-c2ccc(C(C)(C)C#N)cc2)c2c3cc(-c4cnc5ccccc5c4)ccc3ncc21', 'remaining activity at 1 µM', '65%');

Consider the additional molecule presented here.
Query: Could you tell me which remaining activity at 1 µM is on file for Nc1cc(C(F)(F)F)c(-c2cc(N3CCOCC3)nc(N3CCOCC3)n2)cn1 ?
Result: 32%

Origin of values: paper PMC5564600
